# reported pIC50; entries follow
System: A2780 cells
METHOD DESCRIPTION: In-Vitro Cell Proliferation Assay (SRB)
Format: cell-based
STATED CONDITIONS: Homo sapiens, A2780, 72 h
pIC50: −log10 of the molar value.

- STRUCTURE AS SMILES: "N#CN=C(NCc1ccc(S(=O)(=O)c2ccc(OC(F)(F)F)cc2)cc1)Nc1ccncc1"
  TESTED TARGET: "A2780 cells"
  pIC50: 7.93
- STRUCTURE AS SMILES: "N#CN=C(NCc1ccc(S(=O)(=O)c2ccc(C#N)cc2)cc1)Nc1ccncc1"
  TESTED TARGET: "A2780 cells"
  pIC50: 7.86
- STRUCTURE AS SMILES: "COc1cccc(S(=O)(=O)c2ccc(CNC(=NC#N)Nc3ccncc3)cc2)c1"
  TESTED TARGET: "A2780 cells"
  pIC50: 8.47
- STRUCTURE AS SMILES: "CCCOc1ccc(S(=O)(=O)c2ccc(CNC(=NC#N)Nc3ccncc3)cc2)cc1Cl"
  TESTED TARGET: "A2780 cells"
  pIC50: 8.24
- STRUCTURE AS SMILES: "COc1cc(Cl)cc(S(=O)(=O)c2ccc(CNC(=NC#N)Nc3ccncc3)cc2)c1"
  TESTED TARGET: "A2780 cells"
  pIC50: 8.80
- STRUCTURE AS SMILES: "N#C/N=C(\\NCc1ccc(S(=O)(=O)N2CC3CCC(C2)O3)cc1)Nc1ccncc1"
  TESTED TARGET: "A2780 cells"
  pIC50: 7.96
- STRUCTURE AS SMILES: "N#C/N=C(\\NCc1ccc(S(=O)(=O)c2ccc(F)cc2)cc1)Nc1ccncc1"
  TESTED TARGET: "A2780 cells"
  pIC50: 7.89
- STRUCTURE AS SMILES: "Cc1cc(S(=O)(=O)c2ccc(CNC(=NC#N)Nc3ccncc3)cc2)ccc1F"
  TESTED TARGET: "A2780 cells"
  pIC50: 8.41
- STRUCTURE AS SMILES: "N#CN=C(NCc1ccc(S(=O)(=O)c2cccc(F)c2)cc1)Nc1ccncc1"
  TESTED TARGET: "A2780 cells"
  pIC50: 7.84
- STRUCTURE AS SMILES: "Cc1ccc(S(=O)(=O)c2ccc(CNC(=NC#N)Nc3ccncc3)cc2)cn1"
  TESTED TARGET: "A2780 cells"
  pIC50: 8.20
- STRUCTURE AS SMILES: "CCOc1ccc(S(=O)(=O)c2ccc(CNC(=NC#N)Nc3ccncc3)cc2)cc1F"
  TESTED TARGET: "A2780 cells"
  pIC50: 8.49
- STRUCTURE AS SMILES: "Cc1cc(F)ccc1S(=O)(=O)c1ccc(CNC(=NC#N)Nc2ccncc2)cc1"
  TESTED TARGET: "A2780 cells"
  pIC50: 8.27
- STRUCTURE AS SMILES: "N#CN=C(NCc1ccc(S(=O)(=O)c2ccc(Cl)c(C(F)(F)F)c2)cc1)Nc1ccncc1"
  TESTED TARGET: "A2780 cells"
  pIC50: 8.82
- STRUCTURE AS SMILES: "Cc1ccc(S(=O)(=O)c2ccc(CN/C(=N\\C#N)Nc3ccncc3)cc2)cc1"
  TESTED TARGET: "A2780 cells"
  pIC50: 8.59
- STRUCTURE AS SMILES: "Cc1ncccc1S(=O)(=O)c1ccc(CNC(=NC#N)Nc2ccncc2)cc1"
  TESTED TARGET: "A2780 cells"
  pIC50: 8.12
- STRUCTURE AS SMILES: "CC(C)c1cccc(S(=O)(=O)c2ccc(CNC(=NC#N)Nc3ccncc3)cc2)c1"
  TESTED TARGET: "A2780 cells"
  pIC50: 8.96
- STRUCTURE AS SMILES: "N#CN=C(NCc1ccc(S(=O)(=O)c2cccc(C#N)c2)cc1)Nc1ccncc1"
  TESTED TARGET: "A2780 cells"
  pIC50: 8.21
- STRUCTURE AS SMILES: "N#CN=C(NCc1ccc(S(=O)(=O)c2ccc(-n3cccn3)c(F)c2)cc1)Nc1ccncc1"
  TESTED TARGET: "A2780 cells"
  pIC50: 8.03
- STRUCTURE AS SMILES: "Cc1ccc(S(=O)(=O)c2ccc(CNC(=NC#N)Nc3ccncc3)cc2)c(C)c1"
  TESTED TARGET: "A2780 cells"
  pIC50: 8.82
- STRUCTURE AS SMILES: "Cc1ccncc1S(=O)(=O)c1ccc(CNC(=NC#N)Nc2ccncc2)cc1"
  TESTED TARGET: "A2780 cells"
  pIC50: 8.07

---

System: A2780 cells
METHOD DESCRIPTION: In-Vitro Cell Proliferation Assay (SRB)
Assay type: cell-based
STATED CONDITIONS: Homo sapiens, A2780, 72 h
pIC50: −log10 of the molar value.
# reported pIC50; entries follow

- STRUCTURE AS SMILES: "N#CN=C(NCc1ccc(S(=O)(=O)c2ccc(Cl)cc2)cc1)Nc1ccncc1"
  pIC50: 8.43
- STRUCTURE AS SMILES: "N#CN=C(NCc1ccc(S(=O)(=O)c2ccc(OCC(F)(F)F)c(F)c2)cc1)Nc1ccncc1"
  pIC50: 8.23
- STRUCTURE AS SMILES: "N#CN=C(NCc1ccc(S(=O)(=O)c2cccc(-n3cccn3)c2)cc1)Nc1ccncc1"
  pIC50: 8.54
- STRUCTURE AS SMILES: "N#CN=C(NCc1ccc(S(=O)(=O)c2cccc3cccnc23)cc1)Nc1ccncc1"
  pIC50: 7.85
- STRUCTURE AS SMILES: "COc1ccc(S(=O)(=O)c2ccc(CNC(=NC#N)Nc3ccncc3)cc2)cc1OC"
  pIC50: 8.47
- STRUCTURE AS SMILES: "CCOc1ccc(S(=O)(=O)c2ccc(CNC(=NC#N)Nc3ccncc3)cc2)cc1"
  pIC50: 8.48
- STRUCTURE AS SMILES: "N#CN=C(NCc1ccc(S(=O)(=O)c2cc(F)cc(F)c2)cc1)Nc1ccncc1"
  pIC50: 8.70
- STRUCTURE AS SMILES: "Cc1ccc(S(=O)(=O)c2ccc(CNC(=NC#N)Nc3ccncc3)cc2)cc1F"
  pIC50: 8.21
- STRUCTURE AS SMILES: "COc1cc(S(=O)(=O)c2ccc(CNC(=NC#N)Nc3ccncc3)cc2)ccc1C"
  pIC50: 9.10
- STRUCTURE AS SMILES: "Cc1ccc(S(=O)(=O)c2ccc(CNC(=NC#N)Nc3ccncc3)cc2)cc1Cl"
  pIC50: 8.80

---

Tested on: A2780 cells
METHOD DESCRIPTION: In-Vitro Cell Proliferation Assay (SRB)
Assay type: cell-based
STATED CONDITIONS: Homo sapiens, A2780, 72 h
Method: In-Vitro Cell Proliferation Assay […] After overnight incubation at 37° C. and 5% CO2, the compound titrations were performed in a separate dilution plate by serially diluting the compounds in DMSO to make a 1000× stock. […] The number of viable cells was then assessed using sulforhodamine B (SRB) assay. […] The plates were then read in a microplate reader at an absorbance of 570 nm. […] Percent inhibitions were determined using the method given above.
ENDPOINT NAME: log10(IC50) (log10 of the value in nM)

- STRUCTURE AS SMILES: "CCCn1cc(S(=O)(=O)c2ccc(CNC(=NC#N)Nc3ccncc3)cc2)cn1"
  log10(IC50): 0.81
- STRUCTURE AS SMILES: "N#CN=C(NCc1ccc(S(=O)(=O)c2ccc(Cl)c(F)c2)cc1)Nc1ccncc1"
  log10(IC50): 0.28
- STRUCTURE AS SMILES: "CN(C)S(=O)(=O)c1cccc(S(=O)(=O)c2ccc(CNC(=NC#N)Nc3ccncc3)cc2)c1"
  log10(IC50): 0.79
- STRUCTURE AS SMILES: "COc1cc(F)cc(S(=O)(=O)c2ccc(CNC(=NC#N)Nc3ccncc3)cc2)c1"
  log10(IC50): 0.32
- STRUCTURE AS SMILES: "CCCS(=O)(=O)Nc1cccc(S(=O)(=O)c2ccc(CNC(=NC#N)Nc3ccncc3)cc2)c1"
  log10(IC50): 1.37

---

# reported pIC50; entries follow
System: A2780 cells
METHOD DESCRIPTION: In-Vitro Cell Proliferation Assay (SRB)
Format: cell-based
STATED CONDITIONS: Homo sapiens, A2780, 72 h
pIC50: −log10 of the molar value.

- STRUCTURE AS SMILES: "N#CN=C(NCc1ccc(S(=O)(=O)c2cccc(OC(F)(F)F)c2)cc1)Nc1ccncc1"
  pIC50: 8.48
- STRUCTURE AS SMILES: "CCOc1cccc(S(=O)(=O)c2ccc(CNC(=NC#N)Nc3ccncc3)cc2)c1"
  pIC50: 8.19
- STRUCTURE AS SMILES: "N#CN=C(NCc1ccc(S(=O)(=O)c2ccc(N3CCOCC3)nc2)cc1)Nc1ccncc1"
  pIC50: 8.48
- STRUCTURE AS SMILES: "N#CN=C(NCc1ccc(S(=O)(=O)c2cccc3c2OCO3)cc1)Nc1ccncc1"
  pIC50: 8.03
- STRUCTURE AS SMILES: "N#C/N=C(\\NCc1ccc(S(=O)(=O)c2ccccc2)cc1)NCc1cccnc1"
  pIC50: 6.17
- STRUCTURE AS SMILES: "N#C/N=C(\\NCc1ccc(S(=O)(=O)c2ccc(-c3ccccc3)cc2)cc1)Nc1ccncc1"
  pIC50: 8.21
- STRUCTURE AS SMILES: "CN(C)C(=O)c1cc(F)cc(S(=O)(=O)c2ccc(CNC(=NC#N)Nc3ccncc3)cc2)c1"
  pIC50: 7.89
- STRUCTURE AS SMILES: "CN(C)C(=O)c1cccc(S(=O)(=O)c2ccc(CNC(=NC#N)Nc3ccncc3)cc2)c1"
  pIC50: 7.19
- STRUCTURE AS SMILES: "COc1ccc(C(C)C)cc1S(=O)(=O)c1ccc(CNC(=NC#N)Nc2ccncc2)cc1"
  pIC50: 8.46
